# EXPERIMENTAL_SYSTEM: human TSH receptor (Homo sapiens, UniProt P16473)
# Construct: expressed in transfected cells
# Sequence (P16473 21-764): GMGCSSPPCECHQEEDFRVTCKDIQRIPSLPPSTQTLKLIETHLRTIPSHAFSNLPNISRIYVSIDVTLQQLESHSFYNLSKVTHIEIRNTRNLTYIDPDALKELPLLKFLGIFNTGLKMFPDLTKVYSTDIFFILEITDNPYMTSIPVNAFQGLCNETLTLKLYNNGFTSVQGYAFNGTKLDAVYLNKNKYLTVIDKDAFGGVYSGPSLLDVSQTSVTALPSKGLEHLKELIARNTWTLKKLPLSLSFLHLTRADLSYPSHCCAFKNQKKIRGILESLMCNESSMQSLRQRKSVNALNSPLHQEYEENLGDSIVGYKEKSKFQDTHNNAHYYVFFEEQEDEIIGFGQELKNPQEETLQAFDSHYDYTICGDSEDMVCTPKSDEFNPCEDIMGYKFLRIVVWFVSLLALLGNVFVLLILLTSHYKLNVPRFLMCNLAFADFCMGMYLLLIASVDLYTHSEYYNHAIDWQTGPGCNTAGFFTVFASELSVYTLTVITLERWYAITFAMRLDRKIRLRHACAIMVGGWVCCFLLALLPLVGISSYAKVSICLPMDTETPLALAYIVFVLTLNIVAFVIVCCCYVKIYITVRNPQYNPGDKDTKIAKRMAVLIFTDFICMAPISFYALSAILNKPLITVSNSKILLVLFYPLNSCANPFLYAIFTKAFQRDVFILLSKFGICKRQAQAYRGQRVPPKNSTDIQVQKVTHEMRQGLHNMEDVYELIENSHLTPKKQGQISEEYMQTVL
# EXPERIMENT: intracellular cAMP accumulation, agonism at TSHR stably expressed in HEK EM 293 cells
# Format: cell-based
# APPLIED_CONDITIONS: read-out: EC50 (TSHR) in μm [95% C.I.]; cAMP, HEK EM 293 cells, dose response 0-100 μM compound; ** estimated EC50, no plateau
RECORDED_ENDPOINT: pEC50
// field semantics: pEC50 = negative decimal log of concentration (mol/L)

## Input Which pEC50 reading was recorded for the compound COc1cccc(-c2nc(SC)nc3sc(C(=O)NC(C)(C)C)c(N)c23)c1 [Compound 3, reference compound] ?
## Output 5.19
